Data provenance is patent US20170066831A1.

# study-target: T1, cynomolgus (Macaca fascicularis) ST2L extracellular domain with C-terminal His6 tag (Macaca fascicularis (cynomolgus), UniProt Q01638 19-321 (human entry))
# T1 construct: also called cyno ST2L-ECD; cynoST2L-ECD
# T1 chain: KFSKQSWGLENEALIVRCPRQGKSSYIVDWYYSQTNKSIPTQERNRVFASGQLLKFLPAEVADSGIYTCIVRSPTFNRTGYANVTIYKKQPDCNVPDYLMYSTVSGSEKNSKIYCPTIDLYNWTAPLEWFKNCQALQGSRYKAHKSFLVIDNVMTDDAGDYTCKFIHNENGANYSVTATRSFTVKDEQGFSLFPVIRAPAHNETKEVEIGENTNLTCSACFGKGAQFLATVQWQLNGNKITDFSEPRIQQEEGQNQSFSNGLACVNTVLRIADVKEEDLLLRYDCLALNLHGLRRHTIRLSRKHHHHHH
# assay-explanation: SPR, mAb captured, ST2L-ECD in solution
Measured pKd by item
Just the number, please; pKd means minus log10 of the concentration in mol/L.

Some entries whose results are on file:
binder: STLM209 (antibody, V domains shown, frameworks VH3-23 / Vk-L6) VH: EVQLLESGGGLVQPGGSLRLSCAASGFTFSIYDMIWVRQAPGKGLEWVSTIRGEGGGTSYADSVKGRFTISRDNSKNTLYLQMNSLRAEDTAVYYCARDPWSTEGSFFVLDYWGQGTLVTVSS VL: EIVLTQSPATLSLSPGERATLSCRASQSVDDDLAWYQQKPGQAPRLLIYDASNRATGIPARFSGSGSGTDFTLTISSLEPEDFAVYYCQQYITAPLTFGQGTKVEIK
value: 11.05
--
binder: STLM103 (antibody, V domains shown, frameworks VH3-23 / Vk-L6) VH: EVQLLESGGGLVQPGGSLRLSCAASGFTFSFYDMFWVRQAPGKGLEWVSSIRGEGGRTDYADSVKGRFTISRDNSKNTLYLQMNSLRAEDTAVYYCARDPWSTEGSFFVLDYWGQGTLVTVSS VL: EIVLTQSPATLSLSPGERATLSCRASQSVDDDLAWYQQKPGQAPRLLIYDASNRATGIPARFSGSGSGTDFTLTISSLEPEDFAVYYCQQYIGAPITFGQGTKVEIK
value: 10.51
--
binder: STLM107 (antibody, V domains shown, frameworks VH3-23 / Vk-L6) VH: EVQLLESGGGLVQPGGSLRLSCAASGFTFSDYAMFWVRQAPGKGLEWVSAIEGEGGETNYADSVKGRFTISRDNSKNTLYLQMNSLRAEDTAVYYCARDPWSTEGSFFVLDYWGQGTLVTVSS VL: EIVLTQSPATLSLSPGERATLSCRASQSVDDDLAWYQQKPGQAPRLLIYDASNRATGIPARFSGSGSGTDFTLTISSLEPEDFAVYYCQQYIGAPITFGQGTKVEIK
value: 11.15
--
binder: STLM124 (antibody, V domains shown, frameworks VH3-23 / Vk-L6) VH: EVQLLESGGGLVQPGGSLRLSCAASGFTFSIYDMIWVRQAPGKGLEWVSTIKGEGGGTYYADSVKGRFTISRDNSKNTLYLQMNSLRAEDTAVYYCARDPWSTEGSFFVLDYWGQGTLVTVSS VL: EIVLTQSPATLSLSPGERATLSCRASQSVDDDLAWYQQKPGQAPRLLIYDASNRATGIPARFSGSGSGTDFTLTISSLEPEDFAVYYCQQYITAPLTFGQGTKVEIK
value: 10.52

With those in mind, consider the next binder.
Exam item: Quick one: pKd for STLM222 (antibody, V domains shown, frameworks VH3-23 / Vk-L6) VH: EVQLLESGGGLVQPGGSLRLSCAASGFTFSIYSMFWVRQAPGKGLEWVSDIGGEGGGTSYADSVKGRFTISRDNSKNTLYLQMNSLRAEDTAVYYCARDPWSTEGSFFVLDYWGQGTLVTVSS VL: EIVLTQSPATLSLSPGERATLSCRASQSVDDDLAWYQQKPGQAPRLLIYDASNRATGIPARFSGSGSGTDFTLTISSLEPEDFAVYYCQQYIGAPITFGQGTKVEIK ?
Marked response: 10.54
